Test system: U-251
assay-explanation: Antiproliferative activity against human U-251 cells assessed as inhibition of cell growth measured after 48 hrs by CCK8 assay relative to control
Assay type: functional, cell-based
test-context: U-251, 48 h
endpoint-label: IC50

chemical-smiles: C=C[C@]1(C)CC[C@@H](C(=C)C)C[C@H]1C(=C)C
IC50: 181 µM

Hey, U-251 data for C=C[C@]1(C)CC[C@@H]2C[C@H]1C(=C)CN(C)CCN(C)Cc1cccc(c1)CN(C)CCN(C)CC2=C : IC50 came out at 23 µM
